# System Name: recombinant human glucagon receptor (Homo sapiens, UniProt P47871)
# Sequence (P47871 26-477): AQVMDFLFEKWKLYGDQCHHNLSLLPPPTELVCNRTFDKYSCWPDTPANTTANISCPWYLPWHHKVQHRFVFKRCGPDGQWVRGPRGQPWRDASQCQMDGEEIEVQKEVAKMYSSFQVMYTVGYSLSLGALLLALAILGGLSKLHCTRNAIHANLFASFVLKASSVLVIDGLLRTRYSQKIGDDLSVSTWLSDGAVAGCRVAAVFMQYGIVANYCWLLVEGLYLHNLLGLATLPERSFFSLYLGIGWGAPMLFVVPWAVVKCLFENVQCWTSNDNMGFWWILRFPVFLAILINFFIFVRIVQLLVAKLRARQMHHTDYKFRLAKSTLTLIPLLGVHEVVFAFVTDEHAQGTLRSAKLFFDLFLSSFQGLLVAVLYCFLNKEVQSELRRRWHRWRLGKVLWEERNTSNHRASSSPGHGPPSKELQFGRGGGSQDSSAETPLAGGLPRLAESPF
# Method Notes: Inhibition of glucagon-stimulated intracellular cAMP assay
# Assay Setup: CHO cells expressing recombinant human glucagon receptor, stimulated with 300 pM glucagon
Parameter: IC50 (nM)

{"columns": ["Molecule", "IC50 / nM"],
 "data": [
  ["CC[C@H](c1ccc(C(=O)NCCC(=O)O)cc1)N1C(=O)C(N2CCCCC2)=NC12CCC(C(C)(C)C)CC2 (some centres unmarked)", 209],
  ["CC(C)(C)CC[C@H](c1ccc(C(=O)NCc2nn[nH]n2)cc1)N1C(=O)C(C2CCCCC2)=NC12CCC(C(C)(C)C)CC2 (some centres unmarked)", 290]
]}
